All figures here come from ChEMBL document CHEMBL1148548.

- experimental_target: Glutamate receptor ionotropic, AMPA (Rattus norvegicus, UniProt P19490+P19491+P19492+P19493)
- assay_details: Ability to inhibit kainate-induced increase of calcium in rat cerebellar granule cells expressing AMPA receptor
- Type: functional
measured_metric: IC50 (µM)

P: CCNC(=O)N1N=C(c2ccc(N)cc2)c2cc3c(cc2CC1=O)OCO3
Q: CNC(=O)N1N=C(c2ccc(N)cc2)c2cc3c(cc2CC1=O)OCCO3
Compare P and Q by numeric IC50 and name the larger one. Output the label that corresponds to your choice.
P

a: Nc1ccc(C2=NNC(=O)Cc3cc4c(cc32)OCO4)cc1
b: Nc1ccc(C2=NNC(=O)Cc3cc4c(cc32)OCCO4)cc1
Returns: the label, a or b , whose recorded IC50 is the lower number. Use the label to indicate which entry you chose.
b

###

- Test system: Mus musculus
- assay_details: Protective index [PI = TD50/ED50 (from clonic phase of the audiogenic seizures)] in mice at 3.3-200 umol/kg, ip
- Format: functional
Attribute: Ratio TD50/ED50
Lab note: jot the number down without any unit.

Nc1ccc(C2=NNC(=O)Cc3cc4c(cc32)OCCO4)cc1 = 1.7
CCNC(=O)N1N=C(c2ccc(N)cc2)c2cc3c(cc2CC1=O)OCCO3 = 2
Cc1cc(C2=NNC(=O)Cc3cc4c(cc32)OCCO4)ccc1N = 2.4

Attention now shifts to the item below.
Query (molecule): Nc1ccc(C2=NNC(=O)Cc3cc4c(cc32)OCCO4)cc1Cl ; field requested: Ratio TD50/ED50
1.4
